- test.target: T1, GST-human NOGO-A56 (human)
- T1 construct: Expressed in E. coli BL21 from pGEX-6P1 and purified on glutathione-sepharose; the GST tag is part of the protein in the assays; also called GST-Nogo-A 5+6; GST Nogo-A 5 + 6
- T1 sequence (chain, as listed by the source limits assumed): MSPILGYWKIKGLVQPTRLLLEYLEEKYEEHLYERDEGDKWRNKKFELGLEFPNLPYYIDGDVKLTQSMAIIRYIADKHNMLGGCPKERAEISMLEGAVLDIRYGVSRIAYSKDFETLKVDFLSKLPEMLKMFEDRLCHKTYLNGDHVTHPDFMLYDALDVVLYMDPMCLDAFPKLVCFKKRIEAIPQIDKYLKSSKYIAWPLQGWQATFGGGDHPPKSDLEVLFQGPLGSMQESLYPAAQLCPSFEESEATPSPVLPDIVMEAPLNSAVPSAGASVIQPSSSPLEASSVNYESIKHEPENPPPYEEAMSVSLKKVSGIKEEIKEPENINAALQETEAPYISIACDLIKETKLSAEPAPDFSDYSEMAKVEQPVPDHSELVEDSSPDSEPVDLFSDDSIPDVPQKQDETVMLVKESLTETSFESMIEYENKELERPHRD
- procedure.summary: SPR (Biacore), GST-human NOGO-A56 amine-coupled to CM5, antibody flowed over, 25 C
readout: pKd
The value called pKd is obtained by taking minus log10 of the concentration in mol/L.

1) HcLc (chimera of 2A10: murine 2A10 VH and VL with human IgG constant regions) (antibody, V domains shown, also called chimeric antibody; chimeric form of the parental antibody) VH: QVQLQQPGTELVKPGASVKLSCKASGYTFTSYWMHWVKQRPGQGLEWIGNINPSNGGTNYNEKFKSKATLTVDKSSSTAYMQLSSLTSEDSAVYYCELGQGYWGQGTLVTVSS VL: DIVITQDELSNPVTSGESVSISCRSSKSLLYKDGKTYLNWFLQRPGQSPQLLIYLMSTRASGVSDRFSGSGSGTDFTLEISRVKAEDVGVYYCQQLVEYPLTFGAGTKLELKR
9.13
2) H26L13 (antibody, human IgG1, kappa, V domains shown, H26 FL is H6 FL with G95M (Kabat); IgG1 (L235A, G237A) / kappa; CAMPATH-1H signal (1-19) left out; also called H6(G95M)L13; H6L13 with VH CDR3 MQGY) VH: QVQLVQSGAEVKKPGASVKVSCKASGYTFTSYWMHWVRQAPGQGLEWIGNINPSNGGTNYNEKFKSRATMTRDTSTSTAYMELSSLRSEDTAVYYCELMQGYWGQGTLVTVSS VL: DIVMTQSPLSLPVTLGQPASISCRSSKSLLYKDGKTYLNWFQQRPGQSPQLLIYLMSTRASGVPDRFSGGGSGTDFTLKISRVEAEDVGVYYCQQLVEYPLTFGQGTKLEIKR
9.06
3) H28L13 (antibody, human IgG1, kappa, V domains shown, IgG1 (L235A, G237A) / kappa; CAMPATH-1H signal (1-19) left out; also called H28FL L13FL) VH: QVQLVQSGAEVKKPGASVKVSCKASGYTFTSYWMHWVRQAPGQGLEWIGNINPSNGGTNYNEKFKSKATMTRDTSTSTAYMELSSLRSEDTAVYYCELMQGYWGQGTLVTVSS VL: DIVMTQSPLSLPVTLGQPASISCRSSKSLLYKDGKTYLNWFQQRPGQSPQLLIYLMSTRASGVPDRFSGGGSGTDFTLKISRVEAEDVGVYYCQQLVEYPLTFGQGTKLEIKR
9.35

From here, focus on the item given below.
q: Endpoint output: pKd of H27L13 (antibody, human IgG1, kappa, V domains shown, IgG1 (L235A, G237A) / kappa; CAMPATH-1H signal (1-19) left out) VH: QVQLVQSGAEVKKPGASVKVSCKASGYTFTSYWMHWVKQRPGQGLEWIGNINPSNGGTNYNEKFKSKATLTVDKSTSTAYMELSSLRSEDTAVYYCELMQGYWGQGTLVTVSS VL: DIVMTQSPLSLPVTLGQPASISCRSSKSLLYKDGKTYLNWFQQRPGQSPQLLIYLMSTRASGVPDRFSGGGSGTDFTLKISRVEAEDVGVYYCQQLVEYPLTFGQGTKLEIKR . Value?
a: 9.55

These measurements were taken from patent US20130287781A1.
